Test system: OS-RC-2
assayExplanation: Antiproliferative activity against human OS-RC2 cells after 72 hrs by MTT assay
Format: functional, cell-based
testContext: OS-RC-2, 72 h
Quick reference: pIC50 of the listed items.
Here pIC50 is given on a logarithmic scale as minus log10 of the concentration in mol/L.

compound: Cc1ccccc1C1CCN(C2=CC(=O)c3cccc(O)c3C2=O)CC1
targetOrTestSystem: OS-RC-2
pIC50: 5.49
--
compound: O=C1C=C(N2CCC(c3ccc(Cl)cc3)CC2)C(=O)c2c(O)cccc21
targetOrTestSystem: OS-RC-2
pIC50: 5.28
--
compound: O=C1C=C(N2CCN(c3ccccc3Cl)CC2)C(=O)c2ccccc21
targetOrTestSystem: OS-RC-2
pIC50: 5.05
--
compound: O=C1C=C(N2CCN(c3ccccc3)CC2)C(=O)c2c(O)cccc21
targetOrTestSystem: OS-RC-2
pIC50: 5.82
--
compound: O=C1C=C(N2CCC(c3ccccc3)CC2)C(=O)c2c(O)cccc21
targetOrTestSystem: OS-RC-2
pIC50: 6.15

Now consider a different compound.
Query: May I ask what pIC50 has been recorded for COc1ccccc1N1CCN(C2=CC(=O)c3cccc(O)c3C2=O)CC1 ?
Result: 5.72
